Molecular target: UniProt:O00255
Sequence (O00255 whole entry): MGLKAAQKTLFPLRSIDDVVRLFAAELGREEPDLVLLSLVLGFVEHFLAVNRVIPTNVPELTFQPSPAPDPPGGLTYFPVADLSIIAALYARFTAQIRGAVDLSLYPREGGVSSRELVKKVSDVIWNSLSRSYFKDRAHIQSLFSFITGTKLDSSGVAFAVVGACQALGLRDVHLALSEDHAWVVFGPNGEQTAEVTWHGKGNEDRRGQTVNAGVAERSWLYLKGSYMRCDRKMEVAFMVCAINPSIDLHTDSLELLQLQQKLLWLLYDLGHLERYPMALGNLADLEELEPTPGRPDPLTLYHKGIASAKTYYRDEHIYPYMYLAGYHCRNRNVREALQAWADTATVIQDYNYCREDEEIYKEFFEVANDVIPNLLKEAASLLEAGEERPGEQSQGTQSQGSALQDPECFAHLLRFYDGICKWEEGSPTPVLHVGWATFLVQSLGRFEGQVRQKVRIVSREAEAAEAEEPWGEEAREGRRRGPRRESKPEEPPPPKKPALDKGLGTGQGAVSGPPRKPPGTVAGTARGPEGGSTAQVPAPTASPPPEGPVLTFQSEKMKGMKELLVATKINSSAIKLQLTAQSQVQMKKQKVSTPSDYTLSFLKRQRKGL
Assay: Primary Assay Used to Determine Potency of MEN1 Activity Inhibition
pEC50: −log10 of the molar value.
endpoint.name: pEC50

compound: Cc1c(CN2CCC3(CC2)CN(c2ncnc4ccc(CC(F)(F)F)cc24)C3)ccc2c1cc(C#N)n2CC1CCC(=O)N1 (stereo not drawn)
pEC50: > 7.12

Task: Report pEC50 for `CCS(=O)(=O)N1CCN([C@H](C)Cn2c(C#N)cc3c(C)c(CN4CCC5(CC4)CN(c4ncnc6ccc(CC(F)(F)F)cc46)C5)ccc32)C[C@@H]1C` please.
Result: > 7.12

Task: Same question, `Cc1c(CN2CCC3(CC2)CN(c2ncnc4ccc(CC(F)(F)F)cc24)C3)ccc2c1cc(C#N)n2CC12CC(NS(N)(=O)=O)(C1)C2` this time
Result: > 7.12
